Recorded values, source ChEMBL document CHEMBL1201862.

System: UACC-62
protocol.text: NCI tumour cell line growth inhibition, 48 h
Active and inactive are the calls of the source. Rule as the data show it: active = GI50 up to about 1.1 µM and inactive = higher.
Your answer must be one of the following: T for active, F for inactive

compound	qualitative.label
CCOP(=O)(OCC)C(Cc1ccccc1)N=C(c1ccccc1)c1ccccc1 (configuration not stated)	F

So what was the verdict on CC12CCCC(C(=O)O)(C1)[C@H](C(C)(C)C(=O)O)CC2 (some centres not stated) in this test?
F

Recorded call for Cc1cn(C2CC(O)C(CO)O2)c(=O)[nH]c1=O (configuration not stated) ?
F

Hello, I am checking results. What call was entered for COc1ccccc1/C=C1\Sc2scc(-c3cccc([N+](=O)[O-])c3)[n+]2C1=O ?
F

Fill in: this test's call for CCOC(=O)Nn1c(C)nnc1CC#N is ___
F

Just curious, what result did NCCOCCOCC(=O)O get here?
F

For this compound, state the assay outcome: CN/C(=N\C#N)N(Cc1ccccc1)Cc1ccccc1
F

Test call for this compound, please: COc1cc2c(cc1OC)C1(c3ccccc3)ON=C(c3ccccc3)N1CS2 (configuration not stated)
F

* * *

System: SF-268
protocol.text: NCI tumour cell line growth inhibition, 48 h
Active and inactive are the calls of the source. No stated cut-off is given here; in the data, active = GI50 up to about 1.1 µM and inactive = higher.
Here the recorded GI50 is given for each entry.

As a guide, the following entries are already answered.
> print(dat)
                                    compound                  val
 1    COc1cccc(NC(=O)CSc2nnc(Cc3ccccc3)o2)c1  > 100 µM (inactive)
 2      CCOC(=O)C(=CNc1ccc(F)c(F)c1)C(=O)OCC  > 100 µM (inactive)
 3  COc1cc2cc[n+]3c(C)c4cc(OC)c(OC)cc4c([O-])c3c2cc1OC   36.3 µM (inactive)
 4  Clc1ccc2c(c1)C1C(CO2)C(c2ccccc2)=NN1c1ccccc1 (configuration not stated)   42.5 µM (inactive)
 5  COC(=O)C1CCC(C)CC1=O (configuration not stated)  > 100 µM (inactive)
 6  O=[N+]([O-])c1ccc(-c2nc(/C=N/N3CCCCC3)cs2)o1  > 100 µM (inactive)
 7  c1cc(CSP234N5CCN2CCN3CCN4CC5)cc(CSP234N5CCN2CCN3CCN4CC5)c1   29.4 µM (inactive)
 8  COc1cc(/C=C/C(=N\NC(=O)c2ccccc2)c2sc(Nc3ccc(Cl)c(Cl)c3)nc2C)ccc1O   38.6 µM (inactive)
 9  COc1ccc(/C=C/C(=O)N[C@@H]2C(=O)N3[C@@H]2SC(C)(C)[C@@H]3C(=O)O)cc1OC  > 100 µM (inactive)
10          Cc1n[nH]c(=O)n1/N=C/c1ccc(Cl)cc1   44.9 µM (inactive)

Summary for this compound, CC1(C)[C@H](O)CC[C@]2(C)C3=CC[C@@]4(C)[C@@H]5C[C@](C)(CO)CC[C@]5(C)CC[C@]4(C)C3=CC[C@@H]12 : GI50 is > 100 µM (inactive)

Looking up Cc1cc2c(nn1)-c1ccccc1C2=O , I see its GI50 listed as > 10 µM (inactive)

Data point: O=C(CCC(=O)Nc1ccc(Cl)c(Cl)c1)CC(=O)c1ccc(F)cc1 ; GI50 = > 100 µM (inactive)

GI50 reading for NN/C(Cc1ccccc1)=N/NC(N)=S : > 100 µM (inactive)

Measured GI50, CCOC(=O)COC1=Nc2cc(OC)c(OC)c3nc(Cl)cc(c23)C1=O : 2.37 µM (inactive)

Sure, the documented GI50 for COc1ccc2c3c([nH]c2c1)[C@H](C=C(C)C)N1C(=O)[C@@H]2CCCN2C(=O)[C@@H]1C3 is 44 µM (inactive)

The compound identified as Fc1ccc(C2NC(=S)NC3=C2CCOc2c3ccc3ccccc23)cc1 (configuration not stated) registered its GI50 at 45.1 µM (inactive)

The reported GI50 of the compound COc1ccc(OC)c2c1-c1nnnn1CCC2(C)C was > 100 µM (inactive)

Measured GI50, N#CC(C(=O)c1cccnc1Cl)c1nc2cc(C(F)(F)F)ccc2s1 (configuration not stated) : 64.9 µM (inactive)

Reported GI50 ( O=C(Oc1cc(=O)c(OC(=O)c2ccccc2)co1)c1ccccc1 ) = 90.4 µM (inactive)

Recorded result, Cc1cc2c(C)n(Cc3ccc(Cl)cc3Cl)nc2c(C(=O)O)c1C , GI50: > 100 µM (inactive)

// field: GI50; key: COC1=CC(=O)c2c(O)c3c(c(O)c2C1=O)C=C(C)OC3O (configuration not stated) ; value = 2.18 µM (inactive)
